From: patent US20250051443A1

# Assayed system: T1, Cynomolgus CD3 (Cynomolgus, UniProt Q95LI5 22-198; Q95LI7 23-181; Q95LI8 22-171)
# T1 construct: whole, on cells; also called CD3 on Cynomolgus PBMCs; CD3 on HSC-F Cynomolgus T cell line
# T1 sequence (Q95LI5 22-198, chain 1 of 3): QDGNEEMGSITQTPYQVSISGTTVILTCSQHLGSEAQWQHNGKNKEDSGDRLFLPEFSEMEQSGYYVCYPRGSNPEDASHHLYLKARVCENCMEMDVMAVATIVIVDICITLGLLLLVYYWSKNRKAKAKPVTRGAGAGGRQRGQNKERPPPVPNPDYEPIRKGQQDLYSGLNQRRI
# T1 sequence (Q95LI7 23-181, chain 2 of 3): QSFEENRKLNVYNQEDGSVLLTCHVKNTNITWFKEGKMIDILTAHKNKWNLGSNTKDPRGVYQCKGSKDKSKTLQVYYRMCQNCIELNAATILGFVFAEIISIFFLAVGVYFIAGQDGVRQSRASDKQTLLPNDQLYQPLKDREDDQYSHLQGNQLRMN
# T1 sequence (Q95LI8 22-171, chain 3 of 3): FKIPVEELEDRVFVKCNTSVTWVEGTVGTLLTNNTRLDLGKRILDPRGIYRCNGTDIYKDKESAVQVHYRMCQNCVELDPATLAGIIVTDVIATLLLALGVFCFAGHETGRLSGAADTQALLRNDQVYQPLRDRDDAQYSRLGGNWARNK
# Protocol: apparent KD (KDapp), flow cytometry titration on cynomolgus HSC-F T cell line
Measurement name: Kd (pM)
Kindly provide the numeric value in pM only, without the unit symbol.

Could you share which Kd value was measured for F332-7E3 (antibody, mouse IgG2a, V domains shown, also called F332-7E3-2) VH: QVQLQQPGAELGKPGTSVKLSCKASGYTFTSYWIHWVKQRPGQGLEWIGNINPNSGSINYNEKFKSKATLTVDKSSSTAYMQLSTLTSEDFAVYYCTRDTSGQYYFDYWGQGTTLTVSS VL: DIVMSQSPSSLAVSAGEKVTMSCKSSQSLLNSRTRKNYLAWYQQKPGQSPKLLIYWASTRESGVPDRFTGSGSGTDFTLTISSVQAEDLAVYYCKQSYHLRTFGGGTKLEIK ?
310
